Entry source: patent US8119624B2

Overview of reported EC50 across a group of compounds:
- target-entity: Full-length glucokinase (beta cell isoform) (Homo sapiens)
- Construct: Full-length glucokinase (beta cell isoform) was His-tagged at N-terminus; His tag (N); made in house
- Sequence (P35557 1-465): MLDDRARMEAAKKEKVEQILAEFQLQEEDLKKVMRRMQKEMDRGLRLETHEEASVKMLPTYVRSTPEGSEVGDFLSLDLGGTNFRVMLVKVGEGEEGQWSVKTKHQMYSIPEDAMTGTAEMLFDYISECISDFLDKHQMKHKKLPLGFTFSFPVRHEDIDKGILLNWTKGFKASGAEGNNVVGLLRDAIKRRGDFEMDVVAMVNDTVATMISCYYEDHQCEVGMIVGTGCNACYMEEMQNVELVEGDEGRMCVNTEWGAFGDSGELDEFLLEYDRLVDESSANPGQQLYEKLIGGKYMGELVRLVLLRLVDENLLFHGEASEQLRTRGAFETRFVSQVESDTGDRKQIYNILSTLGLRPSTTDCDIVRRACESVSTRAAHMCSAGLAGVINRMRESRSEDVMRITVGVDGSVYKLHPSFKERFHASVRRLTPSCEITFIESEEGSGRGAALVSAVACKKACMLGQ
- measurement-notes: Glucokinase biochemical assay (PK/LDH-coupled, NADH depletion at 340 nm): % activation, EC50, % max activation
- condition-notes: 5 mM glucose; GK activation; read-out: EC50
readout: EC50 (nM)

>  <compound>
Cc1cc2cc(C(=O)Nc3ccn(C)n3)cc(O[C@@H](C)Cc3ccccc3)c2o1

>  <sign>
>

>  <recorded-number>
10000

$$$$
>  <compound>
Cc1cc(NC(=O)c2cc(Oc3ccc(S(C)(=O)=O)cc3)c3c(c2)OC(C)(C)C3)no1

>  <sign>
=

>  <recorded-number>
1300

$$$$
>  <compound>
COCC1(C)Cc2c(Oc3ccc(S(=O)(=O)C4CC4)cc3)cc(C(=O)Nc3ccn(C)n3)cc2O1 (single isomer, unassigned; (+)) [Example 248]

>  <sign>
=

>  <recorded-number>
490

$$$$
>  <compound>
Cn1ccc(NC(=O)c2cc(OC3CN(S(C)(=O)=O)C3)c3c(c2)OC(C)(C)C3)n1

>  <sign>
=

>  <recorded-number>
8800

$$$$
>  <compound>
CN(C)C(=O)c1cc(F)c(Oc2cc(C(=O)Nc3ccn(C)n3)cc3c2CC(C)(C)O3)cc1F

>  <sign>
=

>  <recorded-number>
280

$$$$
>  <compound>
CCNC(=O)c1ncc(Oc2cc(C(=O)Nc3ccn(C)n3)cc3c2CC(C)(C)O3)cc1NCC

>  <sign>
=

>  <recorded-number>
770

$$$$
>  <compound>
CC1(C)Cc2c(Oc3ccc(S(C)(=O)=O)cc3)cc(C(=O)Nc3ccc(CO)cn3)cc2O1

>  <sign>
=

>  <recorded-number>
290

$$$$
>  <compound>
CCc1nnc(NC(=O)c2cc(Oc3ccc(S(C)(=O)=O)cc3)c3c(c2)OC(C)(C)C3)s1

>  <sign>
=

>  <recorded-number>
1100

$$$$
>  <compound>
Cc1cc2c(Oc3ccc(S(=O)(=O)N4CCC4)cc3)cc(C(=O)Nc3ccc(Cl)cn3)cc2o1

>  <sign>
=

>  <recorded-number>
710

$$$$
>  <compound>
C[C@@H](CO)COc1cc(C(=O)Nc2ccn(C)n2)cc2c1CC(C)(C)O2

>  <sign>
=

>  <recorded-number>
8800

$$$$
>  <compound>
Cc1cc2c(Oc3ccc(S(=O)(=O)N(C)C)c(F)c3)cc(C(=O)Nc3ccn(C)n3)cc2o1

>  <sign>
=

>  <recorded-number>
140

$$$$
>  <compound>
CCS(=O)(=O)c1ccc(Oc2cc(C(=O)Nc3ccc(C)cn3)cc3c2CC(C)(C)O3)cc1

>  <sign>
=

>  <recorded-number>
37

$$$$
>  <compound>
Cn1ccc(NC(=O)c2cc(Oc3ccc(C(=O)N4CC[C@H](F)C4)c(F)c3)c3c(c2)OC(C)(C)C3)n1

>  <sign>
=

>  <recorded-number>
230

$$$$
>  <compound>
Cc1cc(NC(=O)c2cc(Oc3ccc(C(=O)N(C)C)c(F)c3)c3c(c2)OC(C)(C)C3)no1

>  <sign>
=

>  <recorded-number>
179

$$$$
>  <compound>
CN(C)C(=O)c1ccc(Oc2cc(C(=O)Nc3ccn(C)n3)cc3c2CC(C)(C)O3)cc1Cl

>  <sign>
=

>  <recorded-number>
76

$$$$
>  <compound>
CN(C)C(=O)c1ccc(Oc2cc(C(=O)Nc3ccn(C)n3)cc3c2CC(C)(C)O3)cc1F

>  <sign>
=

>  <recorded-number>
80.7

$$$$
>  <compound>
Cc1cc2cc(C(=O)Nc3ccn(C)n3)cc(Oc3ccc(S(C)(=O)=O)cc3)c2s1

>  <sign>
=

>  <recorded-number>
1700

$$$$
>  <compound>
CCS(=O)(=O)c1ccc(Oc2cc(C(=O)Nc3ccn(C)n3)cc3c2CC(C)(C)O3)cc1F

>  <sign>
=

>  <recorded-number>
120

$$$$
>  <compound>
Cn1ccc(NC(=O)c2cc(Oc3ccc(C(=O)Nc4ccn(C)n4)nc3)c3c(c2)OC(C)(C)C3)n1

>  <sign>
=

>  <recorded-number>
440

$$$$
>  <compound>
COCC(C)Oc1cc(C(=O)Nc2ccn(C)n2)cc2c1CC(C)(C)O2 (stereo not drawn)

>  <sign>
>

>  <recorded-number>
10000

$$$$
>  <compound>
COc1cnc(NC(=O)c2cc(Oc3ccc(C(=O)N(C)C)nc3)c3cc(C)oc3c2)cn1

>  <sign>
=

>  <recorded-number>
430

$$$$
>  <compound>
Cc1cc2c(Oc3ccc(S(C)(=O)=O)cn3)cc(C(=O)Nc3cnn(C)n3)cc2o1

>  <sign>
>

>  <recorded-number>
10000

$$$$
>  <compound>
Cn1ccc(NC(=O)c2cc(Oc3ccc(C(=O)N4CC[C@@H](F)C4)c(F)c3)c3c(c2)OC(C)(C)C3)n1

>  <sign>
=

>  <recorded-number>
75

$$$$
>  <compound>
Cn1ccc(NC(=O)c2cc(Oc3ccc(C(=O)N4CCC4)c(F)c3)c3c(c2)OC(CO)C3)n1 (stereo not drawn)

>  <sign>
=

>  <recorded-number>
360

$$$$
>  <compound>
CN(C)C(=O)c1ncc(Oc2cc(C(=O)Nc3ccn(C)n3)cc3c2CC(C)(C)O3)cn1

>  <sign>
=

>  <recorded-number>
250

$$$$
>  <compound>
Cn1ccc(NC(=O)c2cc(Oc3cnc(C(=O)N4CCC4)nc3)c3c(c2)OC(C)(C)C3)n1

>  <sign>
=

>  <recorded-number>
480

$$$$
>  <compound>
COCc1cc2c(Oc3ccc(S(C)(=O)=O)cc3)cc(C(=O)Nc3cnc(OC)cn3)cc2o1

>  <sign>
=

>  <recorded-number>
490

$$$$
>  <compound>
Cn1ncc(NC(=O)c2cc(Oc3ccc(C(=O)N4CCC4)c(F)c3)c3c(c2)OC(C)(C)C3)n1

>  <sign>
=

>  <recorded-number>
150

$$$$
>  <compound>
Cn1ccc(NC(=O)c2cc(Oc3ccc(C(=O)N4CCCC4)cc3)c3c(c2)OC(C)(C)C3)n1

>  <sign>
=

>  <recorded-number>
142

$$$$
>  <compound>
Cc1ccc(NC(=O)c2cc(Oc3ccc(C(=O)N4CCC4)c(F)c3)c3c(c2)OC(CO)C3)nc1 (stereo not drawn)

>  <sign>
=

>  <recorded-number>
810

$$$$
